In this section we review reported IC50 values for a set of compounds.
# TARGET OR TEST SYSTEM: UniProt P04629
# TEST PROTOCOL: Isolated TRK enzyme assay (HTRF KinEASE-TK), TRKA
# Assay type: biochemical
# ASSAY CONDITIONS: read-out: Trka enzyme (IC50)
MEASURED METRIC: IC50 (nM)

1. Cc1cc(C(C)C)nn1CC(=O)Nc1cncc(C(=O)c2cn(C(C)C)c3ncncc23)c1 ... 20
2. C[C@H](CO)n1cc(C(=O)c2cncc(NC(=O)Cc3ccc(C#N)cc3)c2)c2cncnc21 ... 129
3. CC(C)n1cc(C(=O)c2cncc(NC(=O)Cc3c[nH]c4nccnc34)c2)c2cncnc21 ... 234
4. CC(C)n1cc(C(=O)c2cncc(NC(=O)Nc3cc(C(C)(C)C)nn3-c3cnn(C)c3)c2)c2cncnc21 ... 4.64

----------
# TARGET OR TEST SYSTEM: UniProtKB P08183
# TEST PROTOCOL: MDCK-MDR1 assay (in vitro brain penetration)
# Format: in vitro ADME
# ASSAY CONDITIONS: MDCK-MDR1, B to A
MEASURED METRIC: MDCK MDR1 Papp BA (×10⁻⁶ cm/s)

1. CC(CO)n1cc(C(=O)c2cncc(NC(=O)Cc3ccc(C(F)(F)F)cc3)c2)c2cnc(N)nc21 (single isomer, unassigned) ... 13
2. CC(CO)n1cc(C(=O)c2cncc(NC(=O)Cn3ccc(C(F)(F)F)n3)c2)c2cnc(N)nc21 (single isomer, unassigned) ... 1.6
3. CC(CO)n1cc(C(=O)c2cncc(NC(=O)Cc3ccc(Cl)cn3)c2)c2cnc(N)nc21 (single isomer, unassigned) ... 6.3
4. CC(CO)n1cc(C(=O)c2cncc(NC(=O)Cc3ccc(Cl)cc3)c2)c2cnc(N)nc21 (single isomer, unassigned) ... 9.5

----------
Reported IC50 values follow for various compounds
# TARGET OR TEST SYSTEM: TRKA (Homo sapiens (Human))
# TEST PROTOCOL: Isolated TRK enzyme assay (HTRF KinEASE-TK), TRKA
# Format: biochemical
# ASSAY CONDITIONS: read-out: Trka enzyme (IC50)
MEASURED METRIC: IC50 (nM)

1. CC(C)n1cc(C(=O)c2cncc(NC(=O)c3cc4ncccn4n3)c2)c2cncnc21 [Example 428] ... 960
2. O=C(Cc1ccc(Cl)cc1)Nc1cncc(C(=O)c2cn(C3(CO)COC3)c3ncncc23)c1 [Example 299] ... 539
3. Cc1ccc(CCC(=O)Nc2cncc(C(=O)c3cn(C)c4ncncc34)c2)cc1 [Example 330] ... 3100
4. CC(C)n1cc(C(=O)c2cncc(NC(=O)c3cc4sccc4cn3)c2)c2cncnc21 [Example 404] ... 118

----------
# TARGET OR TEST SYSTEM: TRKA (Homo sapiens (Human))
# TEST PROTOCOL: Isolated TRK enzyme assay (HTRF KinEASE-TK), TRKA
# Format: biochemical
# ASSAY CONDITIONS: read-out: Trka enzyme (IC50)
MEASURED METRIC: IC50 (nM)

1. Cc1nc(C(=O)Nc2cncc(C(=O)c3cn(C(C)C)c4ncncc34)c2)c(C(F)(F)F)o1 ... 1020
2. CC(C)n1cc(C(=O)c2cncc(NC(=O)c3ccn4ncnc4c3)c2)c2cncnc21 ... 93.4
3. CC(C)n1cc(C(=O)c2cncc(NC(=O)Cn3cnc4ccccc43)c2)c2cncnc21 ... 681
4. Nc1ncc2c(C(=O)c3cncc(NC(=O)Cc4ccc(F)cn4)c3)cn(C34CC(C3)C4)c2n1 ... 6.07

----------
# TARGET OR TEST SYSTEM: MDR1 (Homo sapiens (Human), UniProt P08183)
# Sequence (P08183 whole entry): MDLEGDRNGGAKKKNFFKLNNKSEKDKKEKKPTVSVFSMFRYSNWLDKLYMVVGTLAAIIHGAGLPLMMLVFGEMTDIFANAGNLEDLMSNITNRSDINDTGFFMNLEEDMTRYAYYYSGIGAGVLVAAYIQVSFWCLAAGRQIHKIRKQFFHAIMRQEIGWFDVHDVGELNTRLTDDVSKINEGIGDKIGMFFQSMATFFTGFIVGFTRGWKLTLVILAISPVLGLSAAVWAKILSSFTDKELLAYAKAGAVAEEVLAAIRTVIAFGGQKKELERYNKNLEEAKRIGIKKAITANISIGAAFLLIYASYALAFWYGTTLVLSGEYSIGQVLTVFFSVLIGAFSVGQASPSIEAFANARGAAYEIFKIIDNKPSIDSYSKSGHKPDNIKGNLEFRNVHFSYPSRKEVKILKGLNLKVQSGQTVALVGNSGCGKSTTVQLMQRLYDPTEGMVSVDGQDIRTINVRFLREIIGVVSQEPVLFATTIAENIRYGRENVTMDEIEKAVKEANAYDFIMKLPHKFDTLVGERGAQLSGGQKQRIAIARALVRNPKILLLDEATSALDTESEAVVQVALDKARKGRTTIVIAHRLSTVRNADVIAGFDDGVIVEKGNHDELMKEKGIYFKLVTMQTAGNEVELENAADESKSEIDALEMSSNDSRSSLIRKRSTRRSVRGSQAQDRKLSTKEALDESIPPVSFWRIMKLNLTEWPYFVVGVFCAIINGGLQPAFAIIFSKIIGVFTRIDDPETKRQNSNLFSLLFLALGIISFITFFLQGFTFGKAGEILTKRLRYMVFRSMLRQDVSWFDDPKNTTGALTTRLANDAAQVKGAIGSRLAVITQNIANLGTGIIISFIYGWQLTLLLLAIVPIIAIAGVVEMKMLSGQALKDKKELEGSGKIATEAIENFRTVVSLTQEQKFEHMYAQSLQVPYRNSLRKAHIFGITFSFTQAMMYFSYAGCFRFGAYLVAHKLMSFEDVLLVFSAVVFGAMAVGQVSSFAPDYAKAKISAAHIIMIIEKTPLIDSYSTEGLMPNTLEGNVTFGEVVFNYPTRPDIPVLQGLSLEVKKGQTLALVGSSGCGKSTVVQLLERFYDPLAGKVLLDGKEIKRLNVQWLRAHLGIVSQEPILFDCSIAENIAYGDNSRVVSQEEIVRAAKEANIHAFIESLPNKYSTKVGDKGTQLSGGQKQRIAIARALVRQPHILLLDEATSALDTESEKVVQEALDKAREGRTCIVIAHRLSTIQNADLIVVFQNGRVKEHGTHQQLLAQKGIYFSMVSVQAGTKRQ
# TEST PROTOCOL: MDCK-MDR1 assay (in vitro brain penetration)
# Assay type: in vitro ADME
# ASSAY CONDITIONS: human, MDCK-MDR1, MDCK-MDR1, B to A; read-out: MDCK MDR1 Papp BA
MEASURED METRIC: Papp B→A

1. CC(C)(CO)n1cc(C(=O)c2cncc(NC(=O)Cn3cc(C4CC4)nn3)c2)c2cncnc21 ... 2.6 ×10⁻⁶ cm/s
2. CC(CO)n1cc(C(=O)c2cncc(NC(=O)Cn3cc(C(F)(F)F)nn3)c2)c2cnc(N)nc21 (single isomer, unassigned) ... < 1 ×10⁻⁶ cm/s
3. CC(C)(C)n1cc(C(=O)c2cncc(NC(=O)Cc3ccc(F)cn3)c2)c2cncnc21 ... 14 ×10⁻⁶ cm/s
4. CC(C)(CO)n1cc(C(=O)c2cncc(NC(=O)Cc3ccc(C(F)(F)F)cc3)c2)c2cncnc21 ... 17 ×10⁻⁶ cm/s
5. C[C@@H](CO)n1cc(C(=O)c2cncc(NC(=O)Cc3ccc(Cl)cn3)c2)c2cncnc21 ... 21 ×10⁻⁶ cm/s
6. CC(C)(C)n1cc(C(=O)c2cncc(NC(=O)Cn3ccc(C4CC4)n3)c2)c2cncnc21 ... 20 ×10⁻⁶ cm/s
7. Cc1cc(C(F)(F)F)nn1CC(=O)Nc1cncc(C(=O)c2cn(C(C)(C)CO)c3nc(N)ncc23)c1 ... 21 ×10⁻⁶ cm/s

----------
# TARGET OR TEST SYSTEM: TRKA (Homo sapiens (Human))
# TEST PROTOCOL: Isolated TRK enzyme assay (HTRF KinEASE-TK), TRKA
# Type: biochemical
# ASSAY CONDITIONS: read-out: Trka enzyme (IC50)
The following compounds are shown together with reported IC50 values.
MEASURED METRIC: IC50 (nM)

1. Cn1cc(C(=O)c2cncc(NC(=O)Cc3ccc(SC(F)(F)F)cc3)c2)c2cncnc21 [Example 182] ... 543
2. CC(C)n1cc(C(=O)c2cncc(NC(=O)c3ccc4nccn4c3)c2)c2cncnc21 [Example 423] ... 1330
3. Cc1cccc(-c2nnnn2CC(=O)Nc2cncc(C(=O)c3cn(C(C)C)c4ncncc34)c2)c1 [Example 364] ... 5040
4. CCc1nc2ccccc2n1CC(=O)Nc1cncc(C(=O)c2cn(C(C)C)c3ncncc23)c1 [Example 142] ... 1380
5. Cn1cc(C(=O)c2cncc(NC(=O)Cc3cccc(C(F)(F)F)c3F)c2)c2cncnc21 [Example 192] ... 173
6. CC(C)n1cc(C(=O)c2cncc(NC(=O)c3scnc3C(F)(F)F)c2)c2cncnc21 [Example 402] ... 9800
7. Cc1nc(Cl)nn1CC(=O)Nc1cncc(C(=O)c2cn(C(C)C)c3ncncc23)c1 [Example 369] ... 3000
8. Cn1cc(C(=O)c2cncc(NC(=O)Cc3ccc(-c4ccccc4)cc3)c2)c2cncnc21 [Example 183] ... 1850
9. CC(C)(CO)n1cc(C(=O)c2cncc(NC(=O)Cc3ccc(C#N)cn3)c2)c2cnc(N)nc21 [Example 351] ... 21.1
10. CC(C)n1cc(C(=O)c2cncc(NC(=O)Cc3ccc(Cl)c(Cl)c3)c2)c2cncnc21 [Example 68] ... 12.1
11. CC(C(=O)N(C)C)n1cc(C(=O)c2cncc(NC(=O)Cc3ccc(Cl)cc3)c2)c2cncnc21 (racemic) [Example 230] ... 63.7
12. CC(C)n1cc(C(=O)c2c[nH]c(=O)c(NC(=O)Cn3cc(C(F)(F)F)nn3)c2)c2cncnc21 [Example 591] ... 142
13. CC(C)n1cc(C(=O)c2cncc(NC(=O)Cc3cnc4cccnc4c3)c2)c2cncnc21 [Example 82] ... 908
14. Cn1cc(CC(=O)Nc2cncc(C(=O)c3cn(C(C)(C)C)c4ncncc34)c2)cn1 [Example 202] ... 412
15. CC(C)n1cc(C(=O)c2cncc(NC(=O)Cc3cnccn3)c2)c2cncnc21 [Example 376] ... 5100
16. CC(C)n1cc(C(=O)c2cncc(NC(=O)Cc3cccc(CO)c3)c2)c2cncnc21 [Example 75] ... 567

----------
As shown below, each of these compounds has a reported IC50 value.
# TARGET OR TEST SYSTEM: TRKA (Homo sapiens (Human), UniProt P04629)
# Sequence (P04629 441-796): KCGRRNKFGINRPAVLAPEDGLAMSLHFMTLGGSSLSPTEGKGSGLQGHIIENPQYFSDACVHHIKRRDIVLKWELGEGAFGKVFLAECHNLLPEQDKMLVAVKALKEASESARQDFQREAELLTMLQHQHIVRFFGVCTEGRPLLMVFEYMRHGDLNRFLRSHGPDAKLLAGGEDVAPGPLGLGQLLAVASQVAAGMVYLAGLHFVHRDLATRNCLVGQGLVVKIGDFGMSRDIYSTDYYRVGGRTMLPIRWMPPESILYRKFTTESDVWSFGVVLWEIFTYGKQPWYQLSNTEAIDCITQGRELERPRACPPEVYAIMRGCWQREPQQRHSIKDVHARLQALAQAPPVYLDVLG
# TEST PROTOCOL: Isolated TRK enzyme assay (HTRF KinEASE-TK), TRKA
# Assay type: biochemical
# ASSAY CONDITIONS: read-out: Trka enzyme (IC50)
MEASURED METRIC: IC50 (nM)

1) C[C@@H](CO)n1cc(C(=O)c2cncc(NC(=O)Cc3ccc(OC(F)(F)F)cc3)c2)c2cncnc21 [Example 534] ... 20.3
2) CC(C)n1cc(C(=O)c2cncc(NC(=O)COc3ccc(OC(F)(F)F)cc3)c2)c2cncnc21 [Example 348] ... 36.6
3) CC(C)n1cc(C(=O)c2cncc(NC(=O)c3ccn4nccc4c3)c2)c2cncnc21 [Example 448] ... 272
4) CC(C)n1cc(C(=O)c2cncc(NC(=O)Cn3nnc4ccccc43)c2)c2cncnc21 [Example 135] ... 312
5) O=C(Cc1ccc(Cl)c(Cl)c1)Nc1cncc(C(=O)c2cn(C(CO)CO)c3ncncc23)c1 [Example 276] ... 295
6) CC(C)n1cc(C(=O)c2cncc(NC(=O)c3ccc4[nH]ccc4n3)c2)c2cncnc21 [Example 447] ... 919
7) CC(C)n1cc(C(=O)c2cncc(NC(=O)c3cnc4[nH]ccc4c3)c2)c2cncnc21 [Example 436] ... 205
8) CCCc1cc(C(=O)Nc2cncc(C(=O)c3cn(C(C)C)c4ncncc34)c2)n(C)n1 [Example 437] ... 107
